EXPERIMENTAL_TARGET: furin, P09958;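 note: purified furin at 1:10 enzyme:substrate in 50 mM HEPES pH 7.5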
Sequence (P09958 whole entry): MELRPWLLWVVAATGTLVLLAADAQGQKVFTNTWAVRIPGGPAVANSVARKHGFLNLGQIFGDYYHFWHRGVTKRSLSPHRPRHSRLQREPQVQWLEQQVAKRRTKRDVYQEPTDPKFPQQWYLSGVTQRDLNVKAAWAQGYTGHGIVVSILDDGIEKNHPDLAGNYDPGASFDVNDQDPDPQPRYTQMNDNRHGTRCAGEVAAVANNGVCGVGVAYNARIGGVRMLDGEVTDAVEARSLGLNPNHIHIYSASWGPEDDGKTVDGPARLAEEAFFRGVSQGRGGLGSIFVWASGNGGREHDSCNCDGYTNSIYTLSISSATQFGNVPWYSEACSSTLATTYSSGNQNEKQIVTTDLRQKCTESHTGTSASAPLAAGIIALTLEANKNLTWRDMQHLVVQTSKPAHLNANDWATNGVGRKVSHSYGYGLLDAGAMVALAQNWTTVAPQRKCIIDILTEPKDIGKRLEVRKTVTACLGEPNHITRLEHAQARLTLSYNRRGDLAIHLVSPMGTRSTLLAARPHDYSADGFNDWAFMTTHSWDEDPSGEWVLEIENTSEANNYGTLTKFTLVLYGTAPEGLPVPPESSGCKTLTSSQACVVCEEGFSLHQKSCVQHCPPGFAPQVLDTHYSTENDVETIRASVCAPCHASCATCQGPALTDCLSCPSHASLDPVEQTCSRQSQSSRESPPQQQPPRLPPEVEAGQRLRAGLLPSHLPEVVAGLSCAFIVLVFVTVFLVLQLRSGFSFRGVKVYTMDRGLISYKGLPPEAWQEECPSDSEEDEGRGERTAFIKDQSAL
ASSAY: furin cleavage Z-score vs untreated control; higher = more cleavage, active = 3.5 or more, inactive = 1 or less, 8 variable residues between constant flanks
SETUP_CONDITIONS: 30 min
The list shows a part of the results. The hit rate among all sequences tested is not known here.
Assign fulfilled whenever furin cleavage Z-score does not fall below 0.8; assign not fulfilled whenever it does.

The examples below pair each entry with its known result.
QUERY_SEQUENCE: CARDRRQATEAGNASASA [FS-1692]
CLASS: fulfilled

QUERY_SEQUENCE: CARPRRSTSPAGNASASA [FS-3026]
CLASS: fulfilled

QUERY_SEQUENCE: CARPRRPASPAGNASASA [FS-2581]
CLASS: not fulfilled

QUERY_SEQUENCE: CAEQWRSRRSAGNASASA [FS-993]
CLASS: fulfilled

Test whether the sequence CARDLAVAVEAGNASASA [HC643] records furin cleavage Z-score of 0.8 or higher.
fulfilled

Source: the supplement of paper PMC3545927
